# Target Of Assay: T1, FZD5 CRD (Homo sapiens, UniProt Q13467)
# T1 construct: K29-T156; GPI anchor signal (C); expressed in transfected cells; host or cells: CHO cells, lentiviral pLenti-puro
# T1 sequence (Q13467 29-156): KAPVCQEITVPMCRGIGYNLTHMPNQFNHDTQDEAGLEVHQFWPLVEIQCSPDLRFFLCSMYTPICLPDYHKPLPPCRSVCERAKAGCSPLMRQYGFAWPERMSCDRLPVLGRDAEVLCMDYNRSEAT
# Test Description: Immunofluorescence of anti-FZD5 Fab binding to CHO cells overexpressing Frizzled CRD
# Set-up: key: −: no binding; +: very weak binder; ++: weak binder; +++: good binder; ++++: very good binder
Metric Name: Immunofluorescence binding, Frizzled CRD overexpressed on CHO cells: FZD5

1. Fab-2936: anti-FZD5 Fab with antibody variable region Fv-2936; CDR SEQ ID NOs: 35, 36, 75, 112, 151, 179 (antibody, V domains shown) VH: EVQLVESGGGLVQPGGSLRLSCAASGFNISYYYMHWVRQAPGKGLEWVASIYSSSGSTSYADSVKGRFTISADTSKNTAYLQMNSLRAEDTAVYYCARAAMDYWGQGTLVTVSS VL: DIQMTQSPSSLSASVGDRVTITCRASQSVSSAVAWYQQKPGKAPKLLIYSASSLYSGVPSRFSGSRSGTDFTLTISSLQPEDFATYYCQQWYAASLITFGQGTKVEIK | ++++
2. Fab-2916: anti-FZD5 Fab with antibody variable region Fv-2916; CDR SEQ ID NOs: 35, 36, 55, 94, 131, 167 (antibody, V domains shown) VH: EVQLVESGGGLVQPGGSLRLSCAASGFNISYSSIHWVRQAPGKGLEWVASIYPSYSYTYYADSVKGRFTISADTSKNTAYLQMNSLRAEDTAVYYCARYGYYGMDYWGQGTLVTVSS VL: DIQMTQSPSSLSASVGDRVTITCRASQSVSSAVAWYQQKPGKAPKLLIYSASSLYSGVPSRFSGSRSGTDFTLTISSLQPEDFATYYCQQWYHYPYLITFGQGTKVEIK | ++++
